test: modifiers of F-actin cytoskeleton organization, primary screen, imaging, HUVEC, phalloidin staining, high-content imaging (AID 836); details: HUVEC TNFa F-actin phalloidin imaging, at 2 µM, hits give high values
Hit rate of the full screen: of about 91,000 compounds, about 160 (0.18%) were called active. This excerpt belongs to a sample that is enriched for actives.
PROPERTY_LABEL: inhibition (%)
Use % as the unit, but write only the number.

Endpoint output: inhibition of `Cc1[nH]c2ccccc2c1C(=O)COC(=O)C(C)C` . Value?
-13

Repeat for the following molecule: `Cc1cccc(NC(=S)N2CCC(c3nc4ccccc4s3)CC2)c1`
-9.4

Repeat for the following molecule: `CCCn1nnnc1NC(=O)COc1ccc(Cl)cc1C`
0.8

Repeat for the following molecule: `CC(=O)c1nn(-c2cccc(Br)c2)cc1C(=O)c1cccc2ccccc12`
18.2

Repeat for the following molecule: `CC(C)NC(=O)NC(=O)COC(=O)c1ccc(NC(=O)CC#N)cc1`
2

Repeat for the following molecule: `c1ccc2c(C[n+]3csc4ccccc43)cccc2c1`
1.4

Repeat for the following molecule: `O=C(CN1CCCCCC1)Nc1ccc(Br)cc1Br`
12.8

Repeat for the following molecule: `CSCc1cc(N2CCOCC2)nc(SCc2ccc(Cl)cc2Cl)n1`
3.4

Repeat for the following molecule: `COc1ccc(/C=N/Nc2nc3ccccc3c(=O)[nH]2)cc1`
0.1

Repeat for the following molecule: `N#C/C(=C(/O)COc1cccc2ccccc12)c1nc2ccccc2[nH]1`
-7.4

Repeat for the following molecule: `C=CCNC(=O)c1sc(SC)cc1-c1ccc(Cl)cc1`
7.4

Repeat for the following molecule: `O=C1COc2ccc(NC(=O)N3CCN(c4ccc(F)cc4)CC3)cc2N1`
-1.9

----------
test: modifiers of F-actin cytoskeleton organization, primary screen, imaging, HUVEC, phalloidin staining, high-content imaging (AID 836); details: HUVEC TNFa F-actin phalloidin imaging, at 2 µM, hits give high values
Among all 91,000 compounds or so, about 160 (0.18%) were called active. The sample holds actives, similar compounds and a random draw of the others, so the mix is not that of the screen.
Please go through the items and note down their inhibition.
Use % as the unit, but write only the number.

Endpoint output: inhibition of CN(C)Cc1ccccc1C1(O)c2ccccc2CSc2ccccc21 (stereo unspecified) . Value?
-10.2

Repeat for the following compound: `C/C(=N/NC(=O)c1ccc(NC(=O)c2ccc(F)cc2)cc1)c1ccccc1`
-18.2

Repeat for the following compound: `O=C(/C=C/c1cc2c(cc1Br)OCO2)NCc1ccc(Cl)cc1`
7.8

Repeat for the following compound: `O=[N+]([O-])c1cccc(-c2nnc3c4ccccc4c4ccccc4n23)c1`
5.3

Repeat for the following compound: `CCn1cc(C(=O)N/N=C(/C)c2ccc(F)cc2)c(=O)c2cc(F)c(N3CCCC3)cc21`
15.8

Repeat for the following compound: CC1=NN(C(=O)Cc2ccc(C)cc2)C(O)(c2cccnc2)C1 (stereo unspecified)
5.3

Repeat for the following compound: O=c1c2ccccc2nc2n1C(CSc1ccc(Cl)cc1)CN2 (stereo unspecified)
-15.2

Repeat for the following compound: `CC(C)c1ccc(/C=C/C(=O)NNC(=O)c2cccnc2)cc1`
1.1

Repeat for the following compound: `O=C1c2cccc3cc(Br)cc(c23)C(=O)N1Nc1ccccc1`
-0.3

Repeat for the following compound: `O=C(Nc1cccc2ncccc12)C(Cl)(Cl)Cl`
17.1

Repeat for the following compound: CCC(=O)NC(NCC1CCCO1)C(Cl)(Cl)Cl (stereo unspecified)
-23.7

----------
assay: modifiers of F-actin cytoskeleton organization, primary screen, imaging, HUVEC, phalloidin staining, high-content imaging (AID 836); conditions: HUVEC TNFa F-actin phalloidin imaging, at 2 µM, hits give high values
Screen size: about 91,000 compounds; about 160 (0.18%) were called active. The full list was thinned out, with actives kept by preference.
PROPERTY_LABEL: inhibition (%)
Use % as the unit, but write only the number.

Endpoint output: inhibition of `c1ccc2c(CSCc3nc4ccccc4[nH]3)cccc2c1` . Value?
-12.1

Repeat for the following molecule: `FC(F)(F)c1cccc(-c2cc3ccccc3nc2N2CCCC2)c1`
-10

Repeat for the following molecule: `O=C(Nc1cc(C(F)(F)F)ccc1Cl)c1cc2nc3c(c(C(F)(F)F)n2n1)CCCC3`
0.6

Repeat for the following molecule: `COc1ccccc1NC(=O)[C@H](COCc1ccccc1)NC(=O)OC(C)(C)C`
-9.9

Repeat for the following molecule: `O=C(CCc1ccc(S(=O)(=O)NC2CCCCC2)cc1)NCc1ccccc1`
-16.8

Repeat for the following molecule: `Cc1ccccc1NC(=O)c1ccccc1NS(=O)(=O)c1cccc2cccnc12`
-7.4

Repeat for the following molecule: Cc1ccc(-c2nnc(C)c(N3CC(C)OC(C)C3)n2)cc1 (configuration not stated)
9.5

Repeat for the following molecule: CCN(CC)C(=O)CSC1c2ccccc2C(=O)N1c1ccccc1 (configuration not stated)
-35.9

Repeat for the following molecule: `Cc1c(C(=O)NCc2ccccc2)cnn1-c1ccccc1`
-6.2

Repeat for the following molecule: Cc1nc(NC2=NC(C(=O)Nc3ccc(Cl)cc3)CC(=O)N2)nc2ccccc12 (configuration not stated)
7.9

Repeat for the following molecule: `O=C(c1ccccc1)c1cc(-c2ccccn2)c(N2CCOCC2)s1`
-8.8

Repeat for the following molecule: `Nc1c(-c2cccc(Cl)c2)cnn1-c1cccc([N+](=O)[O-])c1`
14.9

Repeat for the following molecule: CC1Cc2ccccc2N1CC(=O)Nc1ccc2c(c1)OC(F)(F)O2 (configuration not stated)
-0.7

Repeat for the following molecule: `CCCCNC(=O)CCn1c(=S)[nH]c2cc3c(cc2c1=O)OCO3`
-16.1

Repeat for the following molecule: `COC(=O)c1c(CCl)noc1C(=O)NC(C)C`
-7

Repeat for the following molecule: O=C1c2ccccc2C(=O)N1CC1c2ccccc2CCN1S(=O)(=O)c1ccccc1 (configuration not stated)
24.7

Repeat for the following molecule: `Cc1ccc(S(=O)(=O)N(CC(=O)NCCSC2CCCCC2)c2ccccc2F)cc1`
1.5

Repeat for the following molecule: `COc1cc(C(=S)N2CCOCC2)cc(OC)c1OC(=O)c1cc([N+](=O)[O-])c(C)c([N+](=O)[O-])c1`
-7.7

Repeat for the following molecule: `CC(=O)c1cn(CCCCCCCCCCn2cc(C(C)=O)c(=O)[nH]c2=O)c(=O)[nH]c1=O`
6.8

Repeat for the following molecule: O=C(O)c1ccccc1NC(=S)NC(NC(=O)c1ccccc1[N+](=O)[O-])C(Cl)(Cl)Cl (configuration not stated)
-20.2

Repeat for the following molecule: `COc1cccc(C(=O)NNC(=O)c2ccccc2Br)c1`
-16.2

Repeat for the following molecule: COCCCNC(NC(=O)c1ccc(C)cc1)C(Cl)(Cl)Cl (configuration not stated)
-4.7

----------
Please go through the items and note down their inhibition.
test: modifiers of F-actin cytoskeleton organization, primary screen, imaging, HUVEC, phalloidin staining, high-content imaging (AID 836); conditions: HUVEC TNFa F-actin phalloidin imaging, at 2 µM, hits give high values
Among all 91,000 compounds or so, about 160 (0.18%) were called active. The sample as a whole holds a higher share of actives than the screen did.
Use % as the unit, but write only the number.

Endpoint output: inhibition of `COc1cccc(/C=N/NC(=O)c2cccc([N+](=O)[O-])c2)c1OS(=O)(=O)c1ccc(C)cc1` . Value?
-0.8

Repeat for the following molecule: CCCNC(=S)NC1CC2CCCC(C1)N2CC(C)C (configuration not stated)
14.2

Repeat for the following molecule: `Cn1sc(NC(=O)c2ccccc2)nc1=O`
-7.1

Repeat for the following molecule: `O=c1oc2c(Cl)cc(Cl)cc2cc1-c1nnc(Nc2ccccc2F)s1`
5

Repeat for the following molecule: `Cc1ccc(N2CCN(/N=C/c3cccs3)CC2)cc1`
-35.9

Repeat for the following molecule: `O=C(Cc1ccc(S(=O)(=O)N2CCOCC2)s1)NCCC(c1ccccc1)c1ccccc1`
4.8

Repeat for the following molecule: `COc1ccc(Oc2c(Cl)cnn(-c3ccccc3)c2=O)cc1`
-7.9

Repeat for the following molecule: Cc1cc(C)c2c3c(sc2n1)C(c1ccccc1)C(C#N)=C(N)O3 (configuration not stated)
7.5

Repeat for the following molecule: `Cc1ccc(NC(=S)NC2CCCC2)cc1`
0.9

Repeat for the following molecule: `O=C(Nc1ccc(Cl)cc1)OCc1cc(-c2ccccc2)on1`
-6.9

Repeat for the following molecule: `CCn1c(SC)nc(O)c(C(c2ccc(OC)c(O)c2)c2c(O)nc(SC)n(CC)c2=O)c1=O`
10.2

Repeat for the following molecule: `CCOC(=O)CC(=O)CSc1nc(-c2ccccc2)cc(-c2ccc(Cl)cc2)c1C#N`
-2.9

Repeat for the following molecule: `Cc1cccc(NC(=O)c2ccc(OCC(=O)NCc3ccccc3)cc2)c1C`
4.9

Repeat for the following molecule: `CC(C)CC(=O)N1CCC(O)(CS(=O)(=O)Cc2ccccc2)CC1`
34.4

Repeat for the following molecule: `COc1ccc(CCN(C(=O)COc2ccccc2)c2nc(-c3ccccc3)cs2)cc1OC`
-22.5

Repeat for the following molecule: `Cc1cccc(CSc2nnc(NC(=O)CSc3nnc(C)s3)s2)c1`
-21.1

Repeat for the following molecule: `Cc1ccc(N2CCN(C3=NC(=O)/C(=C\c4cccs4)S3)CC2)cc1`
24.1

Repeat for the following molecule: Cc1nc(C)c(C(=O)N(c2ccc(C)c(C)c2)C(C(=O)NCc2ccco2)c2ccccc2)s1 (configuration not stated)
29.1

Repeat for the following molecule: `O=C(Cc1ccccc1)N/N=C/c1ccc(Cl)cc1Cl`
0.1

Repeat for the following molecule: `C=CCNC(=S)NNc1ncnc2sc3c(c12)CC(C)(C)OC3`
-11.6

Repeat for the following molecule: `CCOc1ccc(-c2c(C)n([O-])c3c([n+]2=O)CCCC3)cc1`
-18.2

Repeat for the following molecule: `Cc1ccc(NC(=S)N/N=C2/CCCc3c(C)cc(C)cc32)cc1`
13.9

meta.source: PubChem BioAssay AID836
